# experiment_notes: solvent given as SMILES
# condition_summary: in C1COCCO1
Hi there, I'd appreciate the recorded fluorescence lifetime for every entry that follows.
// return numeric value only (unit: ns, not printed)

Given the compound NS(=O)(=O)c1ccc(N2N=C(c3ccc(O)cc3)CC2c2ccc(F)cc2)cc1 (stereo not given) , what is its reported fluorescence lifetime?
2.33

Given the compound Cc1ccc(C2=C3C=CC(c4ccccc4)=[N+]3[B-](F)(F)n3c2ccc3-c2ccccc2)cc1 , what is its reported fluorescence lifetime?
1.59

Given the compound COc1cc2[nH]c3c(c2cc1OCC(=O)O)CCCC3=O , what is its reported fluorescence lifetime?
0.189

Given the compound CN(CC(O)c1cccc(O)c1)c1ccc([N+](=O)[O-])c(C2CC(c3cccc4ccccc34)=NN2c2ccccc2)c1 (stereo not given) , what is its reported fluorescence lifetime?
3.58

Given the compound Cc1cc(=O)oc2c1cc(Br)c1occ(C)c12 , what is its reported fluorescence lifetime?
0.023
